test: Molar enthalpy of transition or fusion; settings: Crystal; DSC
Would you mind telling me the reported Molar enthalpy of transition or fusion of each entry?
Reply numerically in kcal/mol, unit not repeated.

Inquiry: Would you kindly share the measured Molar enthalpy of transition or fusion for CCCCCCC[n+]1csc2ccccc21.F[P-](F)(F)(F)(F)F [3-heptylbenzo[d]thiazol-3-ium hexafluorophosphate] ?
Reply text: 4.8

Inquiry: Given CCCCCCCC[n+]1csc2ccccc21.F[P-](F)(F)(F)(F)F [N-octylbenzothiazolium hexafluorophosphate] , state its recorded Molar enthalpy of transition or fusion.
Reply text: 3.59

Inquiry: # lookup: Molar enthalpy of transition or fusion of CCCCCC[n+]1csc2ccccc21.F[P-](F)(F)(F)(F)F [N-hexylbenzothiazolium hexafluorophosphate]
Reply text: 5.62

Inquiry: Fill in: Molar enthalpy of transition or fusion of CCCCC[n+]1csc2ccccc21.F[P-](F)(F)(F)(F)F [N-pentylbenzothiazolium hexafluorophosphate] is ___
Reply text: 7.22

* * *

conditions: Crystal; DTA
Numbers after ± are expanded uncertainties.
Can you tell me Normal melting temperature for the items I'm about to list?

Inquiry: Looking for the measured Normal melting temperature of CCCCCC[n+]1csc2ccccc21.F[P-](F)(F)(F)(F)F [N-hexylbenzothiazolium hexafluorophosphate] , can you help?
Reply text: 85.64 ± 0.5 °C

Inquiry: May I ask what Normal melting temperature has been recorded for CCCCCCC[n+]1csc2ccccc21.F[P-](F)(F)(F)(F)F [3-heptylbenzo[d]thiazol-3-ium hexafluorophosphate] ?
Reply text: 86.2 ± 0.5 °C

Inquiry: // Normal melting temperature lookup, key: CCCCC[n+]1csc2ccccc21.F[P-](F)(F)(F)(F)F [N-pentylbenzothiazolium hexafluorophosphate]
Reply text: 139.11 ± 0.5 °C

Inquiry: Could you share which Normal melting temperature value was measured for CCCCCCCC[n+]1csc2ccccc21.F[P-](F)(F)(F)(F)F [N-octylbenzothiazolium hexafluorophosphate] ?
Reply text: 61.07 ± 0.5 °C
